All figures here come from patent US6677310B1.

test-readout: melting point

{"columns": ["chemical-string", "value-reported"],
 "data": [
  ["N=c1nc(N)c2ncn(Cc3ccccc3)c2c(N)n1", "202 to 204 °C"],
  ["O=C1c2ncn(Cc3ccccc3)c2N(Cc2ccccc2)C(=O)CN1Cc1ccccc1", "170 to 172 °C"],
  ["N=c1nc(N)c2nc[nH]c2c(N)n1", "> 220 °C"],
  ["O=C1c2nc(Br)n(Cc3ccccc3)c2N(Cc2ccccc2)C(=O)CN1Cc1ccccc1", "174 to 176 °C"],
  ["O=C1NCC(=O)N(Cc2ccccc2)c2c1nc(Br)n2Cc1ccccc1", "239 to 241 °C"]
]}

---

- Tested on: K-562
- test: SRB anti-cancer assay, Leukemia
- Type: cell-based, human
- condition-label: K-562 (Leukemia), 48 h; read-out: LC50 (the source's name)
The entries below are paired with their reported CC50.
test-readout: CC50

{"columns": ["molecule", "value-reported"],
 "data": [
  ["N=c1[nH]c(=O)c2ncn([C@@H]3O[C@H](CO)[C@@H](O)[C@H]3O)c2c(=O)[nH]1 [Compound 14-1]", "> 100 µM"],
  ["N=c1nc(N)c2ncn([C@@H]3O[C@H](COC(=O)c4ccccc4)[C@@H](OC(=O)c4ccccc4)[C@H]3OC(=O)c3ccccc3)c2c(N)n1", "> 100 µM"]
]}

---

Recorded CC50 values for a group of compounds are listed next.
- Tested on: HOP-92
- Assay type: cell-based, human
- condition-label: HOP-92 (Non-Small Cell Lung Cancer), 48 h; read-out: LC50 (the source's name)

{"columns": ["chemical-string", "measurement-qualifier", "CC50 (µM)"],
 "data": [
  ["N=c1[nH]c(=O)c2ncn([C@@H]3O[C@H](CO)[C@@H](O)[C@H]3O)c2c(=O)[nH]1", ">", 100],
  ["N=c1nc(N)c2ncn([C@@H]3O[C@H](CO)[C@@H](O)[C@H]3O)c2c(N)n1", "=", 83.7]
]}

---

- experimental-target: rabbit liver guanase (Oryctolagus cuniculus)
- Sequence (G1T386 1-454): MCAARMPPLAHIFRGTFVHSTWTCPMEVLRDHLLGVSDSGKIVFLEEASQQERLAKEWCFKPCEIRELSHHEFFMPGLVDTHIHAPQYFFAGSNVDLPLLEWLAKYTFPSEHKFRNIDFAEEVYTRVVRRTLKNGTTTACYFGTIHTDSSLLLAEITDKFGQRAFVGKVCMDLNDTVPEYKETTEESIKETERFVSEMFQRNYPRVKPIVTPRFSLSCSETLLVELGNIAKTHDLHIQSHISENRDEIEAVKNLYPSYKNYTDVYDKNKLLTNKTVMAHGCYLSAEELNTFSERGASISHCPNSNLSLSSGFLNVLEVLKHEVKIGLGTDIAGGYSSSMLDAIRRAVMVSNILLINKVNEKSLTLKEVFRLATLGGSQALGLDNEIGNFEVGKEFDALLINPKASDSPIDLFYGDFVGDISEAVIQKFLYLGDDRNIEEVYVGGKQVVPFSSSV
pKi: −log10 of the molar value.
test-readout: pKi

{"columns": ["molecule", "value-reported"],
 "data": [
  ["COC(=O)C1(N)NC(=O)c2[nH]cnc2NC1=O (centres unmarked)", 3.72],
  ["COC(=O)C1(OC)NC(=O)c2[nH]cnc2NC1=O (centres unmarked)", 3.27]
]}
